System: nude mice, LX-1 lung xenograft intrarenal, tumor weight T/C
Protocol description: NCI In Vivo Anticancer Drug Screen. Data for tumor model Human Lung LX-1 Xenograft (intrarenal inoculation) in NU/NU Swiss (nude) mice
Experimental context: endpoint: mean tumor weight change; dose: 2400.0 mg/kg/injection; schedule: Q04DX003 (sc); vehicle: Klucel (hydroxypropylcellulose) (HPC); higher = larger tumour
Inconclusive results are not listed.
Test readout: T/C

• C[Si](C)(C)OSc1ccccc1[N+](=O)[O-] = 123 % of control
• CC(C)(C)c1ccc(CN2CCN(C(c3ccccc3)c3ccc(Cl)cc3)CC2)cc1 (centres undefined) = 62 % of control
• CN(C1=NS(=O)(=O)N=C(N(C)c2ccccc2)O1)c1ccccc1 = 91 % of control
• CC(C)(C)C1CCCCC1 = 46 % of control
• OCC1OC(n2cnc3c(NO)ncnc32)C(O)C1O (centres undefined) = 68 % of control
• CC1=NNC(=O)C1CCO (centres undefined) = 106 % of control
• OC1CCCC2CCC[N-]C12.OC1CCCC2CCC[N-]C12.[Mn+2] (centres undefined) = 63 % of control
• Cc1ccc(S(=O)(=O)OCOS(=O)(=O)c2ccc(C)cc2)cc1 = 100 % of control
• C#C[C@]1(O)CC[C@H]2[C@@H]3CCc4cc(O)ccc4[C@H]3CC[C@@]21C = 55 % of control
